Cited source: paper PMC10226046

run description: Oral pharmacokinetic absorption study in BALB/c mice (plasma, LC-MS/MS)
Format: in vivo
cond: both sexes, mouse; analyte L-BHDU in plasma; 11.4 mg/kg L-BHDU oral, BALB/c mice; 0 to 120 min
readout label: AUC at 2 h (ng·h/mL)
Give just the numeric value; ng·h/mL need not be written.

(Q) # input molecule: O=c1[nH]c(=O)n([C@@H]2CO[C@H](CO)O2)cc1/C=C/Br ; wanted: its AUC at 2 h
(A) 12700

----------
Test system: VZV-ORF57-Luc
cond: selectivity index = CC50/EC50, ARPE-19 cells
Recorded measurements of SI (CC50/EC50), one per entry

[[record]]
compound = "Cl.N[C@@H](Cc1ccc(O)cc1)C(=O)OC[C@H]1OC[C@@H](n2cc(/C=C/Br)c(=O)[nH]c2=O)O1"
readout_label = "SI (CC50/EC50)"
observed = ">826"


(Q) Could you tell me which SI (CC50/EC50) is on file for CC(C)[C@@H](N)C(=O)OC[C@H]1OC[C@@H](n2cc(/C=C/Br)c(=O)[nH]c2=O)O1.Cl [L-BHDU-L-valine (17), L-BHDU-5′-O-L-valyl Ester Hydrochloride] ?
(A) >3322

(Q) Consider the compound shown here: Cl.NCCCC[C@H](N)C(=O)OC[C@H]1OC[C@@H](n2cc(/C=C/Br)c(=O)[nH]c2=O)O1 [L-BHDU-L-lysine (25), L-BHDU-5′-O-L-lysine Ester Hydrochloride] What is its recorded SI (CC50/EC50)?
(A) >2481

(Q) Give the measured SI (CC50/EC50) of Cl.NCC(=O)OC[C@H]1OC[C@@H](n2cc(/C=C/Br)c(=O)[nH]c2=O)O1 [L-BHDU-glycine (14), L-BHDU-5′-O-glycyl Ester Hydrochloride] .
(A) >2132

(Q) Fill in the blank: the reported SI (CC50/EC50) of CC(C)OC(=O)C(Cc1ccccc1)NP(=O)(OC[C@H]1OC[C@@H](n2cc(/C=C/Br)c(=O)[nH]c2=O)O1)Oc1ccccc1 (stereo in doubt) is ____.
(A) 61
